B1: CPEB3 Ribozyme (parent)
chain: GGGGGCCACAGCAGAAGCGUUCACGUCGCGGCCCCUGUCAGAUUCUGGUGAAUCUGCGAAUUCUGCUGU

# Variants of: B1
# protocol: self-cleavage, relative activity (ratio to wild type); higher = more cleavage; co-transcriptional
observationType: self-cleavage
One number for each entry.

Recorded self-cleavage, per entry:
   variantidentifier  observationtype  measvalue
0          C33A C66A    self-cleavage       0.76
1           G3C C33U    self-cleavage     0.0583
2          G41U U44A    self-cleavage      0.339
3            G2U C6A    self-cleavage     0.0497

Hey, can you go through the list below and give me self-cleavage for every item?
1. G4C G47A
2. G14A U44C

Reply:
[0.674, 0.363]

Hey, can you go through the list below and give me self-cleavage for every item?
1. G5C U21G
2. C34G G41C
3. C24A C66U

Reply:
[0.114, 0.296, 0.651]
